target: MAGL (Mus musculus, UniProt O35678); construct: Proteomes (mouse brain membrane fraction or cell lysates); from tissue; host or cells: mouse brain membrane fraction (or cell lysates, not specified); assay: In vitro competitive activity-based protein profiling (gel-based, FP-Rh or HT-01 probe); format: biochemical; details: 1 μM inhibitor
Sequence (O35678 whole entry): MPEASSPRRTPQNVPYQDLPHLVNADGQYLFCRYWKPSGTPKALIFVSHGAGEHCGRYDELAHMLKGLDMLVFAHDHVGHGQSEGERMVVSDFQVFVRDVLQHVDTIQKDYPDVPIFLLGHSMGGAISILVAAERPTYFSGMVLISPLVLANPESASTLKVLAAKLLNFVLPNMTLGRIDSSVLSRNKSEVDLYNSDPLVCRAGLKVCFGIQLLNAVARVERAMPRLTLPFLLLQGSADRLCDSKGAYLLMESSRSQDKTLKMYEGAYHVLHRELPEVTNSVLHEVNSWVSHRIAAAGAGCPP
// inhibition at 1 µM lookup, one value per entry

Before answering, review these 2 worked examples.
O=C(c1cnn(C(=O)N2CCN(C(c3ccc(Cl)cc3)c3ccc(Cl)cc3)CC2)c1)N1CCCCC1 [Example 66] ... > 75%
O=C(c1cnn(C(=O)N2CCN(Cc3ccncc3)CC2)c1)N1CCC1 [Example 87] ... < 25%

stdin: Look at this compound and give its reported inhibition at 1 µM. Cc1cc(-c2ccccc2)ccc1CN1CCN(C(=O)n2cc(C(=O)N3CCCC3)cn2)CC1 [Example 85]
stdout: > 75%
